The measurements presented in this section are drawn from the supplement of paper PMC7261846.

# System: Candida albicans SNY425 biofilm
# experimentalDetails: biofilm OD600 with compound plus antifungal (OD600 (absorbance)); higher = more biofilm remaining
# recordedConditions: assay detail: sustained inhibition (compound + antifungal during 90-min adherence and 24-h growth)
Counter-ions that a name gives are not always drawn.
quantityKind: biofilm OD600

QUERY: For the compound shown here, O=C1Nc2ccc([N+](=O)[O-])cc2C1=O [5-Nitroisatin] + C[C@@H]1[C@H](O)[C@@H](C)/C=C/C=C/C=C/C=C/C=C/C=C/C=C/[C@H](O[C@@H]2O[C@H](C)[C@@H](O)[C@H](N)[C@@H]2O)C[C@@H]2O[C@](O)(C[C@@H](O)C[C@@H](O)[C@H](O)CC[C@@H](O)C[C@@H](O)CC(=O)O[C@H]1C)C[C@H](O)[C@H]2C(=O)O [amphotericin B] (first compound 12.5 µM) , give the reported biofilm OD600.
RESULT: 0.159

QUERY: For the compound shown here, O=C(O)CNC(=O)C(CS)Cc1ccccc1 (racemic) [DL-Thiorphan] + OC(Cn1cncn1)(Cn1cncn1)c1ccc(F)cc1F [fluconazole] (first compound 12.5 µM) , give the reported biofilm OD600.
RESULT: 0.107

QUERY: For the compound shown here, O=C[C@@H]1CCCN1C(=O)[C@@H]1CCCN1C(=O)OCc1ccccc1 [Z-Prolyl-prolinal] + OC(Cn1cncn1)(Cn1cncn1)c1ccc(F)cc1F [fluconazole] (first compound 12.5 µM) , give the reported biofilm OD600.
RESULT: 0.0978

QUERY: For the compound shown here, CC1(C)C[C@@H]1C(=O)N/C(=C\CCCCSC[C@H](N)C(=O)O)C(=O)O [Cilastatin] + C[C@@H]1[C@H](O)[C@@H](C)/C=C/C=C/C=C/C=C/C=C/C=C/C=C/[C@H](O[C@@H]2O[C@H](C)[C@@H](O)[C@H](N)[C@@H]2O)C[C@@H]2O[C@](O)(C[C@@H](O)C[C@@H](O)[C@H](O)CC[C@@H](O)C[C@@H](O)CC(=O)O[C@H]1C)C[C@H](O)[C@H]2C(=O)O [amphotericin B] (first compound 12.5 µM) , give the reported biofilm OD600.
RESULT: 0.211

QUERY: For the compound shown here, CO[C@@H]1[C@H](OC(=O)/C=C/C=C/C=C/C=C/C(=O)O)CC[C@]2(CO2)[C@H]1[C@@]1(C)O[C@@H]1CC=C(C)C [Fumagillin] + C[C@@H]1[C@H](O)[C@@H](C)/C=C/C=C/C=C/C=C/C=C/C=C/C=C/[C@H](O[C@@H]2O[C@H](C)[C@@H](O)[C@H](N)[C@@H]2O)C[C@@H]2O[C@](O)(C[C@@H](O)C[C@@H](O)[C@H](O)CC[C@@H](O)C[C@@H](O)CC(=O)O[C@H]1C)C[C@H](O)[C@H]2C(=O)O [amphotericin B] (first compound 12.5 µM) , give the reported biofilm OD600.
RESULT: 0.185

QUERY: For the compound shown here, CC[C@H](C)[C@H](N)C(=O)N1CCSC1 [P32/98 hemifumarate salt] + C[C@@H]1[C@H](O)[C@@H](C)/C=C/C=C/C=C/C=C/C=C/C=C/C=C/[C@H](O[C@@H]2O[C@H](C)[C@@H](O)[C@H](N)[C@@H]2O)C[C@@H]2O[C@](O)(C[C@@H](O)C[C@@H](O)[C@H](O)CC[C@@H](O)C[C@@H](O)CC(=O)O[C@H]1C)C[C@H](O)[C@H]2C(=O)O [amphotericin B] (first compound 12.5 µM) , give the reported biofilm OD600.
RESULT: 0.181
